- test_target: intestinal alkaline phosphatase (Alpi), Mus musculus
- method: activators of mouse IAP enzyme, SAR follow-up, biochemical, luminescence (AID 493146)
- measurement_context: purified mouse IAP, luminescent substrate, activation
Activity calls are given as the source filed them. How the calls were made is not given here.
I would appreciate it if you answered using one of these outcomes: active, inactive

N#Cc1c(SCC(=O)Nc2nncs2)sc2c(O)cc(=O)[nH]c12 : inactive
O=C(CCN1C(=O)/C(=C/c2ccco2)SC1=S)Nc1ccc(C(=O)O)c(O)c1 : inactive
Cc1cc(=O)oc2cc(NC(=S)NCCC(c3ccccc3)c3ccccc3)ccc12 : inactive
O=C(C1CCN(S(=O)(=O)c2ccc3[nH]c(=O)oc3c2)CC1)N1CC=C(c2ccccc2)CC1 : inactive
CCOC(=O)N1CCN(S(=O)(=O)c2ccc3[nH]c(=O)oc3c2)CC1 : inactive

Any idea what this test logged for CCc1nnc(NC(=O)CSc2sc3c(O)cc(=O)[nH]c3c2C#N)s1 ?
inactive
